System: Rat fibroblasts (CREF)
Assay: Peg3 promoter luciferase inhibitors, potency, dose response, cell-based, HeLa, CREF/GAPDH counter-screen panel (AID 624167)
Conditions: CREF/GAPDH counter-screens, run 1, dose range 1, individual replicate IC50 per panel
# key: entry, value: IC50
The response must be a number in µM with no trailing unit.

Please review the following examples before continuing.
CN(C)c1ccc(/C=C/c2ccc3ccccc3n2)cc1 | 2.15
O=C(Nc1nc2cc3c(cc2s1)OCO3)C1=COCCO1 | 1.92
Cc1ccccc1OCC(=O)Nc1cccc(C(=O)O)c1 | 35.8
COc1ccccc1C(=O)Nc1nc2ccccc2s1 | 0.348
COC(COC(N)=O)C1=C(N2CC2)C(=O)C(C)=C(N2CC2)C1=O (stereo unspecified) | 8.05
COc1ccc(C(NC(C)=O)c2ccc3cccnc3c2O)c(OC)c1 (stereo unspecified) | 3.55
Cc1nc(C)c(C(=O)N/N=C/c2cc(Br)ccc2O)s1 | 52.3
CN1C/C(=C/c2ccccc2[N+](=O)[O-])C(=O)/C(=C\c2ccccc2[N+](=O)[O-])C1 | 30

Inquiry: // fetch IC50 for CCC1(OC(=O)CN)C(=O)OCc2c1cc1n(c2=O)Cc2cc3ccccc3nc2-1 (stereo unspecified) ; system: Rat fibroblasts (CREF)
Reply text: 1.07

* * *

Target: PEG-3 (UniProt Q6IN02)
Sequence (Q6IN02 whole entry, looked up): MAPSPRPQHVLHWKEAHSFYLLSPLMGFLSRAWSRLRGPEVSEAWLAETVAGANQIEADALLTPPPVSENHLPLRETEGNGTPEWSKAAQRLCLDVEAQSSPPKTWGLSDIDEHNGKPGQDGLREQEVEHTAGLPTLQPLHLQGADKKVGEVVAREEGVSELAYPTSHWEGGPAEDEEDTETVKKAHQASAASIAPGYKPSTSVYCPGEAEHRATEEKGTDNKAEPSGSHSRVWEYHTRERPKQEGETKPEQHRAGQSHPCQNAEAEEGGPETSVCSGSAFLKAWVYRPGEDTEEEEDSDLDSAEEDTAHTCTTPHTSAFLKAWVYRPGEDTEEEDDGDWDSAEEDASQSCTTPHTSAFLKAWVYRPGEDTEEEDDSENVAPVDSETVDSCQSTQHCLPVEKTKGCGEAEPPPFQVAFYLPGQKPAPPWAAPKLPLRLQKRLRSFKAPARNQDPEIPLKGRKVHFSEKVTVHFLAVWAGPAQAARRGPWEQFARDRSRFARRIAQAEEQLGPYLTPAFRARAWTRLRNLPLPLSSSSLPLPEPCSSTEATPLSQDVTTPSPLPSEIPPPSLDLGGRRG
Test: Peg3 promoter luciferase inhibitors, potency, dose response, cell-based, HeLa, CREF/GAPDH counter-screen panel (AID 624167)
Conditions: HeLa PEG-Prom luciferase reporter, overnight, CREF/GAPDH counter-screens, mean of runs
The source made the active and inactive calls.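 Rule for the calls: active = mean IC50 for reducing PEG3 promoter reporter signal at or below a set limit, with IC50 above the limit in both counter screens; inactive = the rest, including counter screen hits.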
quantity-measured: IC50

Oc1ccc(C[C@H]2CNCCN2CCc2cc(C(F)(F)F)cc(C(F)(F)F)c2)cc1 | inactive
Cc1c(C#N)c(N)nc2c3c(sc12)NC(=O)CC3c1ccc(Cl)cc1 (stereo unspecified) | 14.2 µM
Cn1cccc1/C=C1/C(=O)NC(=S)N(Cc2ccc(F)cc2)C1=O | inactive
NC(=O)c1nsc(C(=O)N(c2ccccc2F)C(C(=O)NCc2ccc(F)cc2)c2ccc(O)cc2)c1N (stereo unspecified) | inactive
CCCSc1ccc2nc(-c3ccccc3)cn2c1 | 8.11 µM

Kindly consider the entry below.
Inquiry: // fetch IC50 for COc1ccc(OCc2cccc(C(=O)O)c2)cc1 ; system: PEG-3 (UniProt Q6IN02)
Reply text: 0.327 µM

* * *

System: Rat fibroblasts (CREF)
Assay: Peg3 promoter luciferase inhibitors, potency, dose response, cell-based, HeLa, CREF/GAPDH counter-screen panel (AID 624167)
Settings: CREF/GAPDH counter-screens, run 1, dose range 1, individual replicate IC50 per panel
quantity-measured: IC50

CN(C(=O)COC(=O)/C=C/c1cccc([N+](=O)[O-])c1)C1CCS(=O)(=O)C1 (stereo not drawn) | > 100 µM
Nc1nonc1-n1nnc(C(=O)N/N=C/c2cc(Br)ccc2O)c1CNc1ccccc1 | > 100 µM

Kindly consider the entry below.
Inquiry: // fetch IC50 for Cc1ccc(/C=C2\SC(=S)N(CCCC(=O)Nc3ccccn3)C2=O)cc1 ; system: Rat fibroblasts (CREF)
Reply text: > 100 µM

* * *

Tested on: PEG-3
Test: Peg3 promoter luciferase inhibitors, potency, dose response, cell-based, HeLa, CREF/GAPDH counter-screen panel (AID 624167)
Details: HeLa PEG-Prom luciferase reporter, overnight, CREF/GAPDH counter-screens, run 1, dose range 1, individual replicate IC50 per panel
quantity-measured: pIC50
Entry type: numeric. Quantity: pIC50, the -log10 of concentration in molar units.

Please review the following examples before continuing.
CCOC(=O)c1c(NC(=O)COc2ccccc2F)sc2c1CC(C)(C)NC2(C)C | 4.76
CCCn1c(=N)n(CC(=O)c2ccc(Cl)cc2)c2ccccc21 | 4.72
CC(C)CC(N)c1csc(NC(=O)Nc2ccccc2C(C)(C)C)n1 (stereo not drawn) | 4.64
COc1ccc(N(Cc2cc3cc(OC)ccc3[nH]c2=O)S(=O)(=O)c2ccc(NC(C)=O)cc2)cc1 | 4.75

Inquiry: Let me know recorded pIC50 for CCc1ccc(/C=C2\SC(=S)N(CCCC(=O)Nc3ccccn3)C2=O)cc1 , thanks.
Reply text: 5.28

Inquiry: Let me know recorded pIC50 for Cc1ccc2nc(NC(=O)c3ccccn3)sc2c1 , thanks.
Reply text: 5.89

Inquiry: Let me know recorded pIC50 for CN1Cc2c(N3CCOCC3)nc3sc(C(=O)c4ccc(Br)cc4)c(N)c3c2CC1(C)C , thanks.
Reply text: 4.72

Inquiry: Let me know recorded pIC50 for Cc1c(C(=O)Nc2ccc(S(=O)(=O)N(C)C3CCN(C)CC3)cc2)oc2c(Cl)cccc12 , thanks.
Reply text: 4.78

Inquiry: Let me know recorded pIC50 for COc1ccc(-c2nsc3c(N4CCCCC4C)ncnc23)cc1 (stereo not drawn) , thanks.
Reply text: 4.76

Inquiry: Let me know recorded pIC50 for Cc1ccc(-c2cc(C(=O)Nc3nccs3)c3ccccc3n2)c(C)c1 , thanks.
Reply text: 4.49

Inquiry: Let me know recorded pIC50 for COc1cccc(-c2cnc3c(NC=O)cc(-c4cccc(C(=O)N(C)C)c4)cn23)c1 , thanks.
Reply text: 4.70

Inquiry: Let me know recorded pIC50 for CC1CCCCN1S(=O)(=O)c1ccc(C(=O)N(CCCN(C)C)c2nc3ccc(Br)cc3s2)cc1 (stereo not drawn) , thanks.
Reply text: 4.72

* * *

Test system: PEG-3
Assay: Peg3 promoter luciferase inhibitors, potency, dose response, cell-based, HeLa, CREF/GAPDH counter-screen panel (AID 624167)
Details: HeLa PEG-Prom luciferase reporter, overnight, CREF/GAPDH counter-screens, run 1, dose range 1, individual replicate IC50 per panel
quantity-measured: pIC50
Entry type: numeric. Quantity: pIC50, the -log10 of concentration in molar units.

Please review the following examples before continuing.
O=C(Nc1ccccc1C(=O)Nc1nnc(C(F)(F)F)s1)c1ccccc1 | 5.15
COc1cccc2sc(N(CCCN(C)C)C(=O)C(c3ccccc3)c3ccccc3)nc12 | 4.74
COc1ccc(C(O)(CCC(C)C)C(CN2CCOCC2)c2ccccc2)cc1 (stereo unspecified) | 4.52
CC(=O)c1ccc(-c2cnc3c(NC=O)cc(-c4ccccc4Oc4ccccc4)cn23)cc1 | 5.26
C[C@@H]1O[C@@H](O[C@@H]2C=C3CCC4C(CC[C@]5(C)[C@@H](c6ccc(=O)oc6)CC[C@]45O)[C@@]3(C)CC2)[C@H](O)[C@H](O)[C@H]1O (stereo partly specified) | 6.15

Kindly consider the entry below.
Inquiry: Let me know recorded pIC50 for c1ccc(CCCNCCCn2cnc3c(OCc4ccccc4)ncnc32)cc1 , thanks.
Reply text: 4.46

* * *

Test system: Rat fibroblasts (CREF)
Assay: Peg3 promoter luciferase inhibitors, potency, dose response, cell-based, HeLa, CREF/GAPDH counter-screen panel (AID 624167)
Conditions: CREF/GAPDH counter-screens, mean of runs
The source made the active and inactive calls.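 Rule for the calls: active = mean IC50 for reducing PEG3 promoter reporter signal at or below a set limit, with IC50 above the limit in both counter screens; inactive = the rest, including counter screen hits.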
Respond using exactly one of the listed classes: active, inactive

Worked examples, 6 compounds total:
CC(=O)CSc1ccc(-c2nc3cc(C)c(C)cc3[nH]2)cn1 | active
Cc1ccc(C(C[N+](=O)[O-])Sc2ccc(N)cc2)cc1 (centres undefined) | inactive
CS(=O)(=O)Nc1cccc(NC(=O)C2Cc3c(-c4ccccc4)ccnc3O2)c1 (centres undefined) | inactive
Cc1cc(C2=NNC(=NC3CC3)SC2)c(C)n1-c1ccccc1F | active
CCSc1nc2ccccc2n1C(=O)/C=C\c1ccc(OC)c(OC)c1 | inactive
COc1ccc(OCc2cccc(C(=O)O)c2)cc1 | active

Inquiry: GET /call?item= S=C(NN=C(c1ccccc1)c1ccccn1)N(Cc1ccccn1)Cc1ccccn1 returns the recorded outcome of this test.
Reply text: active

Inquiry: GET /call?item= Cc1c(C)c2ccc(OCC(=O)Nc3ccccn3)c(C)c2oc1=O returns the recorded outcome of this test.
Reply text: active

Inquiry: GET /call?item= c1ccc(-c2nc(-c3ccccn3)no2)cc1 returns the recorded outcome of this test.
Reply text: active

* * *

Target: PEG-3 (UniProt Q6IN02)
Experiment: Peg3 promoter luciferase inhibitors, potency, dose response, cell-based, HeLa, CREF/GAPDH counter-screen panel (AID 624167)
Settings: HeLa PEG-Prom luciferase reporter, overnight, CREF/GAPDH counter-screens, mean of runs
Active and inactive are the calls of the source.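 Rule for the calls: active = mean IC50 for reducing PEG3 promoter reporter signal at or below a set limit, with IC50 above the limit in both counter screens; inactive = the rest, including counter screen hits.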
Respond using exactly one of the listed classes: active, inactive

Worked examples, 6 compounds total:
CN(C)c1ccc(/C=C/c2ccc3ccccc3n2)cc1 | active
CC1CCCN(c2ncnc3c2cnn3-c2ccc(Cl)cc2)C1 (configuration not stated) | active
N=c1c2c(-c3ccccc3)c(-c3ccccc3)n(Cc3ccccc3)c2ncn1CCO | active
COC(=O)c1ccc(CNC(=O)Cn2cnc3c(NCc4ccccc4)ncnc32)cc1 | inactive
Cc1ccc(C(=O)Nc2cc3ccccc3oc2=O)cc1 | active
COc1ccc(NC(=O)Nc2nc(C(N)C3CCCCC3)cs2)cc1 (configuration not stated) | active

Inquiry: GET /call?item= COc1ccc(Nc2nc(-c3ccccc3)nc3ccccc23)cc1S(=O)(=O)N1CCOCC1 returns the recorded outcome of this test.
Reply text: inactive

Inquiry: GET /call?item= CCc1nccn1C(=O)c1cnn2c(C(F)F)cc(-c3ccc(C)cc3)nc12 returns the recorded outcome of this test.
Reply text: active

Inquiry: GET /call?item= O=C(N/N=C/c1c(O)ccc2ccccc12)c1ccc(CO)nc1 returns the recorded outcome of this test.
Reply text: active

Inquiry: GET /call?item= CN(C)CC1CCC/C(=C\c2ccc(OC(=O)/C=C/c3ccccc3)cc2)C1=O (configuration not stated) returns the recorded outcome of this test.
Reply text: active

Inquiry: GET /call?item= CC1=CC(O)C(O)C2(C)C1CC1OC(=O)C(O)C3C(C)C(O)C4(O)OCC13C42 (configuration not stated) returns the recorded outcome of this test.
Reply text: inactive

Inquiry: GET /call?item= CCOc1cccc(/C=N/NC(=S)Nc2cc(S(=O)(=O)N3CCOCC3)ccc2N2CCOCC2)c1O returns the recorded outcome of this test.
Reply text: active

The reported numbers originate from PubChem BioAssay AID624167.
